Recorded IC50 for the following compounds
# System Tested: CDK4/cyclinD1 (Homo sapiens)
# Measurement Description: In vitro filtration assay for CDK4 inhibitory activity (pRb phosphorylation, [33P]-ATP)
# Assay type: biochemical
# Run Parameters: GST-pRb substrate, 1 μM unlabeled ATP, 25° C. 45 minutes, read-out: cdk4 filter (pIC50) (converted)
Numbers only here, please. The scale is nM.

// solved cases for IC50 follow
Compound	Unit Info	IC50
O=c1[nH]c2cnc(Nc3ccc(N4CCOCC4)cc3)nc2n1C1CCCCC1 [compound 78]	nM	1000
CN1CCN(Cc2ccc(Nc3ncc4cnn([C@H]5C[C@@H]6CC[C@H]5C6)c4n3)cc2)CC1 [compound 36]	nM	100
CN1CCN(c2ccc(Nc3ncc4ncn(C5CCCCC5)c4n3)cc2)CC1 [Co. No. 5]	nM	631
c1cc(Nc2ncc3cnn(C4CCCCC4)c3n2)ccc1CNCCN1CCOCC1 [Co. No. 4]	nM	2.51

Let us examine a further case.
Lookup result for CC(C)(C)OC(=O)N1CCN(c2ccc(Nc3ncc4cnn(C5CCCCC5)c4n3)cc2)CC1 [compound 25] ; measured IC50: 1000

###

# System Tested: AURORA A (Homo sapiens, UniProt O14965)
# Sequence (O14965 whole entry): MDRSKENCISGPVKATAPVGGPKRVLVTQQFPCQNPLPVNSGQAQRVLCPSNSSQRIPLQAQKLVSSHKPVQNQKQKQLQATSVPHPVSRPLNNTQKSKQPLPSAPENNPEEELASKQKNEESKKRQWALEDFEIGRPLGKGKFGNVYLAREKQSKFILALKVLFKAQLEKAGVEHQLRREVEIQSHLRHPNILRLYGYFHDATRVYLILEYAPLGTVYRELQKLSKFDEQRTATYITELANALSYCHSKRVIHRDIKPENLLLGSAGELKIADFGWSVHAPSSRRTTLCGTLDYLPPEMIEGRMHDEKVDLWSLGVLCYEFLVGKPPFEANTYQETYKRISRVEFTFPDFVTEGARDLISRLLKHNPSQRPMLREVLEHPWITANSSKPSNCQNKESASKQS
# Measurement Description: In vitro filtration assay for AURORA A inhibitory activity
# Type: biochemical
# Run Parameters: Kemptide substrate, 1 μM unlabeled ATP, 25° C. 40 minutes, read-out: Aurora A see C.2 (pIC50) (converted)
With a cut-off of 800 nM, any IC50 strictly below it is called True; any IC50 meeting it or above is called False.

Example cases with answers are listed next.
Smiles Entry	Label Class
CC(C)(C)OC(=O)N(c1ccc(CN2CCN(CCO)CC2)cc1)c1ncc2cnn(C3CCOCC3)c2n1	False
CC(C)(C)OC(=O)N(c1ccc(CN2CCOCC2)cc1)c1ncc2cnn(C3CCOCC3)c2n1	False
CC(C)(O)CN1CCN(Cc2ccc(Nc3ncc4cnn(C5CCOCC5)c4n3)cc2)CC1	False
CC(=O)N1CCN(c2ccc(Nc3ncc4cnn(C5CCCCC5)c4n3)cc2)CC1	False
COCCCN1CCC(NCc2ccc(Nc3ncc4cnn(C5CCCCC5)c4n3)cc2)CC1	False
COCCCC(=O)N1CCN(Cc2ccc(N(C(=O)OC(C)(C)C)c3ncc4cnn(C5CCCCC5)c4n3)cc2)CC1	False
CC(C)(C)OC(=O)N(c1ccc(CNCCN2CCOCC2)cc1)c1ncc2cnn([C@H]3C[C@@H]4CC[C@H]3C4)c2n1	False
COCCCN(C(=O)OC(C)(C)C)C1CCN(Cc2ccc(N(C(=O)OC(C)(C)C)c3ncc4cnn(C5CCCCC5)c4n3)cc2)CC1	False

Q: I'd appreciate it if you could check whether O=C(c1ccc(Nc2ncc3cnn(C4CCCCC4)c3n2)cc1)N1CCOCC1 has IC50 smaller than 800 nM.
Result: True

Q: I'd appreciate it if you could check whether CN1CCC(NCc2ccc(N(C(=O)OC(C)(C)C)c3ncc4cnn([C@H]5C[C@@H]6CC[C@H]5C6)c4n3)cc2)CC1 has IC50 smaller than 800 nM.
Result: False

Q: I'd appreciate it if you could check whether O=C(NC1CCOCC1)c1ccc(Nc2ncc3cnn(C4CCCCC4)c3n2)cc1 has IC50 smaller than 800 nM.
Result: True

Q: I'd appreciate it if you could check whether CN1CCN(c2ccc(Nc3ncc4cnn(-c5ccccc5)c4n3)cc2)CC1 has IC50 smaller than 800 nM.
Result: True

Q: I'd appreciate it if you could check whether CN1CCN(C(=O)c2ccc(Nc3ncc4cnn([C@H]5C[C@@H]6CC[C@H]5C6)c4n3)cc2)CC1 has IC50 smaller than 800 nM.
Result: True

Q: I'd appreciate it if you could check whether CN1CCN(c2ccc(Nc3ncc4cnn(C5CCCCC5)c4n3)cc2)CC1 has IC50 smaller than 800 nM.
Result: True

Q: I'd appreciate it if you could check whether CC(C)(C)OC(=O)N1CCN(c2ccc(Nc3ncc4cnn(C5CCCCC5)c4n3)cc2)CC1 has IC50 smaller than 800 nM.
Result: True

###

# System Tested: AURORA B (Homo sapiens, UniProt Q96GD4)
# Sequence (Q96GD4 whole entry): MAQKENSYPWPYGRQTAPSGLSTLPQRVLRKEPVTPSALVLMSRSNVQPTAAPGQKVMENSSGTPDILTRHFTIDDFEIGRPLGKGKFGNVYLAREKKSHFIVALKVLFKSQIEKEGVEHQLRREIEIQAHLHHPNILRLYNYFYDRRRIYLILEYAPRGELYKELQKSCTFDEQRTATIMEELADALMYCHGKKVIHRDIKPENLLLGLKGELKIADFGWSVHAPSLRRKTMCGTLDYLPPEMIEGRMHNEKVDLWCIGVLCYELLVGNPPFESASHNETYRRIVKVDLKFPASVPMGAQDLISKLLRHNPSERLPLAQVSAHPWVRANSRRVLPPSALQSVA
# Measurement Description: In vitro filtration assay for AURORA B inhibitory activity
# Format: biochemical
# Run Parameters: peptide (C(LRRWSLG)×4), 1 μM unlabeled ATP, 25° C. 40 minutes, read-out: Aurora B see C.3 (pIC50) (converted)
Recorded IC50 for the following molecules
Numbers only here, please. The scale is µM.

Smiles Entry	Unit Info	Val
CN1CCN(c2ccc(Nc3ncc4c(n3)N(C3CCCCC3)C(=O)C4)cc2)CC1	µM	3.16

Lookup result for COCCCN1CCN(Cc2ccc(Nc3ncc4cnn(C5CCCCC5)c4n3)cc2)CC1 ; measured IC50: 3.98

Lookup result for CC(C)(O)CN1CCN(c2ccc(Nc3ncc4cnn(C5CCCCC5)c4n3)cc2)CC1 ; measured IC50: 3.16

Lookup result for COCCCNC1CCN(Cc2ccc(Nc3ncc4cnn(C5CCCCC5)c4n3)cc2)CC1 ; measured IC50: 3.98

###

Recorded log10 of IC50 for the following compounds
# System Tested: CDK4/cyclinD1 (Homo sapiens, UniProt P11802)
# Sequence (P11802 whole entry): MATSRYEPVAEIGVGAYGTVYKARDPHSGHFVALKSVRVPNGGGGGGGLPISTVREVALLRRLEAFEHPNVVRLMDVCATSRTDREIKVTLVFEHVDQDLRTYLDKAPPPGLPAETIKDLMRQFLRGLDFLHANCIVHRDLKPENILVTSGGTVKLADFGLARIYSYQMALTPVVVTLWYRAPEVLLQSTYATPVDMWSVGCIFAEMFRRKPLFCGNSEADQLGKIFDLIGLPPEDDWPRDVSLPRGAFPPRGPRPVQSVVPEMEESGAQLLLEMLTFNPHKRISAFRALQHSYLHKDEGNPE
# Sequence (P24385 whole entry partner): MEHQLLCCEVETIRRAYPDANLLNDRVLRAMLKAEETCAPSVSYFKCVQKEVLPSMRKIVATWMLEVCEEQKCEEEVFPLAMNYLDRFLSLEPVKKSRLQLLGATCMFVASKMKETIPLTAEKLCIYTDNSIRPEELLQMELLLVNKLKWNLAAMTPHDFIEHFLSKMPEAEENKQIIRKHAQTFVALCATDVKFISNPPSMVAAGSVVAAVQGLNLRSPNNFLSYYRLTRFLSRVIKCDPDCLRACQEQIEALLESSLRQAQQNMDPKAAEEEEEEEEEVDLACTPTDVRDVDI
# Measurement Description: In vitro filtration assay for CDK4 inhibitory activity (pRb phosphorylation, [33P]-ATP)
# Assay type: biochemical
# Run Parameters: GST-pRb substrate, 1 μM unlabeled ATP, 25° C. 45 minutes, read-out: cdk4 filter (pIC50) (converted)
# Method: Compounds of the present invention were tested in an in vitro filtration assay assessing CDK4 activity by means of its pRb-phosphorylation activity using [^33P]-ATP as phosphor donor. The radioactive phosphorylated pRb is then captured on filtermats and the incorporated [^33P] quantitated using a phosphorage storage screen. The CDK4 kinase reaction is performed at 25° C. for 45 minutes in a 96-well microtiterplate. […]
For clarity, the numbers are log10 values of IC50 expressed in nM.

// solved cases for log10 of IC50 follow
Smiles Entry	Val
CN1CCN(Cc2ccc(Nc3ncc4cnn(C5CCCCC5)c4n3)cc2)CC1	0.50
O=c1[nH]c2cnc(Nc3ccc(N4CCOCC4)nc3)nc2n1C1CCCCC1	3.70

Lookup result for c1cc(Nc2ncc3cnn(C4CCCCC4)c3n2)ccc1CNC1CCNCC1 ; measured log10 of IC50: 1.20

Lookup result for CC(C)(C)OC(=O)N(c1ccc(CNCCN2CCOCC2)cc1)c1ncc2cnn([C@H]3C[C@@H]4CC[C@H]3C4)c2n1 ; measured log10 of IC50: 3.80

Lookup result for OCCN1CCN(c2ccc(Nc3ncc4cnn(C5CCCCC5)c4n3)cc2)CC1 ; measured log10 of IC50: 1.00

Lookup result for CC(C)(O)CN1CCN(Cc2ccc(Nc3ncc4cnn(C5CCCCC5)c4n3)cc2)CC1 ; measured log10 of IC50: 1.10

###

# System Tested: UniProt O14965
# Measurement Description: In vitro filtration assay for AURORA A inhibitory activity
# Type: biochemical
# Run Parameters: Kemptide substrate, 1 μM unlabeled ATP, 25° C. 40 minutes, read-out: Aurora A see C.2 (pIC50) (converted)
Property Label: IC50 (nM)
Numbers only here, please. The scale is nM.

Smiles Entry	Unit Info	IC50
CN1CCN(C(=O)c2ccc(Nc3ncc4cnn(C5CCCCC5)c4n3)cc2)CC1	nM	501

Lookup result for c1cc(Nc2ncc3cnn(C4CCCCC4)c3n2)ccc1CNCCN1CCOCC1 ; measured IC50: 1000

Lookup result for O=C(NCCN1CCOCC1)c1ccc(Nc2ncc3cnn(C4CCCCC4)c3n2)cc1 ; measured IC50: 100

Lookup result for c1cc(Nc2ncc3cnn(C4CCCCC4)c3n2)ccc1CN1CCOCC1 ; measured IC50: 15.8

###

Recorded IC50 for the following compounds
# System Tested: UniProtKB O14965
# Measurement Description: In vitro filtration assay for AURORA A inhibitory activity
# Assay type: biochemical
# Run Parameters: Kemptide substrate, 1 μM unlabeled ATP, 25° C. 40 minutes, read-out: Aurora A see C.2 (pIC50) (converted)
Numbers only here, please. The scale is µM.

// solved cases for IC50 follow
Compound	Unit Info	IC50
O=c1[nH]c2cnc(Nc3ccc(CNC4CCNCC4)cc3)nc2n1C1CCCCC1 [compound 86]	µM	5.01
c1cc(N2CCNCC2)ccc1Nc1ncc2cnn(C3CCCCC3)c2n1 [compound 26]	µM	0.251
c1cc(Nc2ncc3cnn(C4CCCCC4)c3n2)ccc1CNC1CCNCC1 [compound 59]	µM	0.794
CN1CCN(c2ccc(Nc3ncc4c(n3)N(C3CCCCC3)C(=O)C4)cc2)CC1 [compound 89]	µM	1.58

Lookup result for c1cc(Nc2ncc3cnn(C4CCCCC4)c3n2)ccc1CNC1CCOCC1 [compound 67] ; measured IC50: 1.58

###

# System Tested: AURORA B (Homo sapiens, UniProt Q96GD4)
# Measurement Description: In vitro filtration assay for AURORA B inhibitory activity
# Format: biochemical
# Run Parameters: peptide (C(LRRWSLG)×4), 1 μM unlabeled ATP, 25° C. 40 minutes, read-out: Aurora B see C.3 (pIC50) (converted)
Recorded IC50 for the following molecules

Smiles Entry	IC50
OC1CCN(c2ccc(Nc3ncc4cnn(C5CCCCC5)c4n3)cc2)CC1	> 10 µM
CN1CCN(c2ccc(Nc3ncc4cnn(C5CCOCC5)c4n3)cc2)CC1	> 10 µM
CC(C)(C)OC(=O)N(c1ccc(CNCCN2CCOCC2)cc1)c1ncc2cnn(C3CCOCC3)c2n1	> 10 µM
CN1CCN(C(=O)c2ccc(Nc3ncc4cnn(C5CCCCC5)c4n3)cc2)CC1	> 10 µM

Let us examine a further case.
Lookup result for CN1CCN(c2ccc(Nc3ncc4[nH]c(=O)n([C@H]5C[C@@H]6CC[C@H]5C6)c4n3)cc2)CC1 ; measured IC50: > 10 µM
